Sourced from PubChem BioAssay AID463199

system: S. cerevisiae Burl-1 ts mutant growth, BacTiter-Glo, 38.5C 24 h; assay: restored growth of temperature-sensitive Burl-1 yeast – whole organism, S. cerevisiae, Burl-1 ts mutant, luminescence, counter-screen for SUMOylation pathway inhibitor project, dose response (AID 463199)
Active and inactive are the calls of the source.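 How the source made its calls: active means AC50, the dose giving half-maximal effect, exceeds a fixed cutoff for a compound that rescues yeast growth under heat; inactive means the rest, inconclusive results apart.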
Could you please report measured AC50 for the items listed next?

Asked: Look up and report measured AC50 for this entry: Cc1cccc(N2C(=O)CSC2c2cccnc2)c1 (stereo not given)
Given back: > 42 µM (inactive)

Asked: Look up and report measured AC50 for this entry: COc1ccc(-c2c(C)nn3c(C)cc(C)nc23)cc1
Given back: > 42 µM (inactive)

Asked: Look up and report measured AC50 for this entry: COc1cc(C(=O)NCCC2=CCCCC2)cc(OC)c1OC
Given back: > 42 µM (inactive)

Asked: Look up and report measured AC50 for this entry: Cc1cc(-c2nnc3sc(C4CCCCC4)nn23)n[nH]1
Given back: > 42 µM (inactive)

Asked: Look up and report measured AC50 for this entry: CN(C(=O)CSc1nc(-c2ccccc2)c(-c2ccccc2)o1)C1CCS(=O)(=O)C1 (stereo not given)
Given back: > 42 µM (inactive)

Asked: Look up and report measured AC50 for this entry: O=C(c1cc2ccccc2o1)N1CCCC1
Given back: > 42 µM (inactive)

Asked: Look up and report measured AC50 for this entry: CCN(Cc1ccccc1)Cc1ccc(OCc2ccccc2)c(OC)c1
Given back: > 42 µM (inactive)

Asked: Look up and report measured AC50 for this entry: Clc1ccc(CN(Cc2ccccc2)C(c2cccs2)c2nnnn2C2CCCC2)cc1 (stereo not given)
Given back: > 42 µM (inactive)

Asked: Look up and report measured AC50 for this entry: O=C1CN(C(=O)COC(=O)CCNS(=O)(=O)c2ccc(Cl)cc2)c2ccccc2N1
Given back: > 42 µM (inactive)

Asked: Look up and report measured AC50 for this entry: CC(=O)Nc1cccc2c1C(=O)N(c1ccccc1C)C2=O
Given back: > 42 µM (inactive)

Asked: Look up and report measured AC50 for this entry: COc1cccc(/C=N/NC(=O)CCn2cnc3ccccc32)c1
Given back: > 42 µM (inactive)

Asked: Look up and report measured AC50 for this entry: O=C(COc1ccccc1Cl)c1ccc[nH]1
Given back: > 42 µM (inactive)

Asked: Look up and report measured AC50 for this entry: O=c1[nH]c(O)c(N=Nc2cc([N+](=O)[O-])ccc2O)c(=O)[nH]1
Given back: > 42 µM (inactive)

Asked: Look up and report measured AC50 for this entry: COCCN(C(=O)c1csnn1)C(C(=O)NC1CCCCC1)c1ccccc1 (stereo not given)
Given back: > 42 µM (inactive)

Asked: Look up and report measured AC50 for this entry: CC(C)NC(=O)NC(=O)COC(=O)CCCSc1nc2ccccc2s1
Given back: > 42 µM (inactive)

Asked: Look up and report measured AC50 for this entry: O=c1c2ccccc2nc(COc2ccccc2)n1/N=C/c1cn[nH]c1-c1ccccc1
Given back: > 42 µM (inactive)

Asked: Look up and report measured AC50 for this entry: Cc1cc(C)n(CCCNC(=O)CN(C)S(=O)(=O)c2ccc(Cl)cc2)n1
Given back: > 42 µM (inactive)

Asked: Look up and report measured AC50 for this entry: CCCn1c(SC(C)C(=O)NCC2CCCO2)nc2sc(CC)cc2c1=O (stereo not given)
Given back: > 42 µM (inactive)

Asked: Look up and report measured AC50 for this entry: CCC(=O)N1CCc2cc(S(=O)(=O)CCC(=O)Nc3cccc(C)n3)ccc21
Given back: > 42 µM (inactive)

Asked: Look up and report measured AC50 for this entry: O=C(Cc1cccs1)Nc1cccc(-c2nnc(-c3ccco3)o2)c1
Given back: > 42 µM (inactive)

Asked: Look up and report measured AC50 for this entry: O=C(CCCn1cnc([N+](=O)[O-])n1)Nc1cccc2ccccc12
Given back: > 42 µM (inactive)

Asked: Look up and report measured AC50 for this entry: Oc1c(Br)cc(Br)cc1/C=N/N1CCN(Cc2ccccc2)CC1
Given back: > 42 µM (inactive)

Asked: Look up and report measured AC50 for this entry: Cc1cc([N+](=O)[O-])ccc1NC(=O)CSc1nccc(=O)[nH]1
Given back: > 42 µM (inactive)

Asked: Look up and report measured AC50 for this entry: CC(C)(c1ccccc1)c1ccc(OCCN2CCOCC2)cc1
Given back: > 42 µM (inactive)

Asked: Look up and report measured AC50 for this entry: CCOC(=O)C1=C(N)c2ccccc2CC1C1CCCC1 (stereo not given)
Given back: > 42 µM (inactive)

Asked: Look up and report measured AC50 for this entry: COc1cccc(OC)c1C(=O)Nc1ccc2c(c1)n(C)c(=O)n2C
Given back: > 42 µM (inactive)

Asked: Look up and report measured AC50 for this entry: Cc1ccc(S(=O)(=O)NNC(=O)c2cc3cc4ccccc4nc3s2)cc1
Given back: > 42 µM (inactive)

Asked: Look up and report measured AC50 for this entry: CCN1CCN(CC(=O)Nc2cccc(C)c2C)C(=O)C1=O
Given back: > 42 µM (inactive)

Asked: Look up and report measured AC50 for this entry: Cc1ccnc(NC(=O)c2ccc(Br)s2)c1
Given back: > 42 µM (inactive)

Asked: Look up and report measured AC50 for this entry: CCc1noc(C)c1C(=O)Nc1nc(-c2ccc(F)cc2)c(C)s1
Given back: > 42 µM (inactive)

Asked: Look up and report measured AC50 for this entry: CCOc1ccc(C(C(=O)NC2CCCC2)N(C(=O)c2snc(C(N)=O)c2N)C2CCCC2)cc1 (stereo not given)
Given back: > 42 µM (inactive)

Asked: Look up and report measured AC50 for this entry: CCC1CCCCN1CCCNC(=O)C1CCC(CNS(=O)(=O)c2c(C)cc(C)cc2C)CC1 (stereo not given)
Given back: > 42 µM (inactive)

Asked: Look up and report measured AC50 for this entry: CCOC(=O)c1ccc(NC(=O)NCc2ccncc2)cc1
Given back: > 42 µM (inactive)

Asked: Look up and report measured AC50 for this entry: O=C(O)COc1ccc(Br)cc1/C=N\Nc1ccccn1
Given back: > 42 µM (inactive)

Asked: Look up and report measured AC50 for this entry: COc1ccc(NC(=O)CN2C(=O)c3ccccc3S2(=O)=O)cc1OC
Given back: > 42 µM (inactive)

Asked: Look up and report measured AC50 for this entry: OCC1(Cc2cccc(Cl)c2)CCCN(Cc2ccc(F)c(F)c2)C1 (stereo not given)
Given back: > 42 µM (inactive)

Asked: Look up and report measured AC50 for this entry: COc1ccc(NC(=O)c2ccc(-c3csc(C)n3)cc2)cc1
Given back: > 42 µM (inactive)

Asked: Look up and report measured AC50 for this entry: CCOc1ccc(C(=O)NNC2CC(=O)N(CCc3ccccc3)C2=O)cc1OC (stereo not given)
Given back: > 42 µM (inactive)

Asked: Look up and report measured AC50 for this entry: CC(C)C(=O)NNc1ccc(C(F)(F)F)cn1
Given back: > 42 µM (inactive)

Asked: Look up and report measured AC50 for this entry: CCC(=O)N1c2ccc(S(=O)(=O)N3CCN(c4ccc([N+](=O)[O-])cc4)CC3)cc2CC1C (stereo not given)
Given back: > 42 µM (inactive)

Asked: Look up and report measured AC50 for this entry: COc1ccc(S(=O)(=O)N2CCCC2CNC(=O)C(=O)NCc2ccccn2)cc1 (stereo not given)
Given back: > 42 µM (inactive)

Asked: Look up and report measured AC50 for this entry: CCOC(=O)N1CCN(C(=O)CNC(=O)c2nn(-c3ccc(OC)c(OC)c3)c(=O)c3ccccc23)CC1
Given back: > 42 µM (inactive)

Asked: Look up and report measured AC50 for this entry: C=CCn1c(=N)c(C(=O)NCCCOC)cc2c(=O)n3ccccc3nc21
Given back: > 42 µM (inactive)

Asked: Look up and report measured AC50 for this entry: Cc1cc(NC(=O)c2ccccc2F)n(C(C)(C)C)n1
Given back: > 42 µM (inactive)

Asked: Look up and report measured AC50 for this entry: CC1=C/C(=N\OS(=O)(=O)c2ccccc2)C(C(C)C)=CC1=O
Given back: > 42 µM (inactive)
